- TARGET DESC: T1, human IL-18 binding protein (human, UniProt O95998 31-194)
- T1 sequence (looked up): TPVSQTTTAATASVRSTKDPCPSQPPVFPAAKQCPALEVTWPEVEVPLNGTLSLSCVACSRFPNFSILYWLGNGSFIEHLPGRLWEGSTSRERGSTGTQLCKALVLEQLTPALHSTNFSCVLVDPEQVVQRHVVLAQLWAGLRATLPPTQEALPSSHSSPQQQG
- ASSAY COMMENT: cell-based or functional assay
Listed here: items and their measured Ratio (-BP/+BP), DF-100,000.

The cases that follow already have their Ratio (-BP/+BP), DF-100,000 on record.
{"BINDER": "yeast display IL-18 variant K53T, S55P (ligand) YFGKLESKLSVIRNLNDQVLFIDQGNRPLFEDMTDSDMRDNAPRTIFIISMYTDPQPRGMAVTISVKSEKISTLSSENKIISFKEMNPPDNIKDTKSDIIFFQRSVPGHDNKMQFESSSYEGYFLASEKERDLFKLILKKEDELGDRSIMFTVQNED", "Ratio (-BP/+BP), DF-100,000": 0.91}
{"BINDER": "yeast display IL-18 variant K53Y, S55G (ligand) YFGKLESKLSVIRNLNDQVLFIDQGNRPLFEDMTDSDMRDNAPRTIFIISMYYDGQPRGMAVTISVKSEKISTLSSENKIISFKEMNPPDNIKDTKSDIIFFQRSVPGHDNKMQFESSSYEGYFLASEKERDLFKLILKKEDELGDRSIMFTVQNED", "Ratio (-BP/+BP), DF-100,000": 0.88}

Okay, next one:
Input: Reported Ratio (-BP/+BP), DF-100,000, binder yeast display IL-18 variant L5W, I22M, K53N, S55Y, Q56H (ligand) YFGKWESKLSVIRNLNDQVLFMDQGNRPLFEDMTDSDMRDNAPRTIFIISMYNDYHPRGMAVTISVKSEKISTLSSENKIISFKEMNPPDNIKDTKSDIIFFQRSVPGHDNKMQFESSSYEGYFLASEKERDLFKLILKKEDELGDRSIMFTVQNED : ____
Output: 0.91
